# measured on: CYP2D6 (Homo sapiens, UniProt P10635)
# Construct: incubation of isoform-specific substrates with human liver microsomes; from tissue; host or cells: human liver microsomes
# Sequence (P10635 whole entry, canonical isoform): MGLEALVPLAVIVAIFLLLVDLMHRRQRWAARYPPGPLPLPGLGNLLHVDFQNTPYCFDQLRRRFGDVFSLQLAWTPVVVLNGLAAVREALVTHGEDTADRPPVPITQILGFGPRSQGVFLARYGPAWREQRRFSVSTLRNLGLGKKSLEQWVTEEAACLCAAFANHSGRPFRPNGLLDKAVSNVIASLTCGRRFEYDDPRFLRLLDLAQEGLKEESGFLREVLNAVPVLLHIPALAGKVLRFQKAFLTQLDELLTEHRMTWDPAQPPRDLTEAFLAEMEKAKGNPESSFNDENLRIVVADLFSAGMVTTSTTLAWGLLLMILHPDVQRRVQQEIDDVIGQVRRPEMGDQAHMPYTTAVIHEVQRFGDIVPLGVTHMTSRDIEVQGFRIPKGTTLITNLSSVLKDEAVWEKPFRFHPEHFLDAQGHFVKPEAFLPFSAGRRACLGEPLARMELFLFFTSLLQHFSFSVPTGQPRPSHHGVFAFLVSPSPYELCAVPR
# procedure details: Cytochrome P450 inhibition, human liver microsomes
# Type: in vitro ADME
# setup conditions: CYP2D6; read-out: Direct inhibition IC50
pIC50: −log10 of the molar value.
experimental readout: pIC50

Cc1[nH]c2nc(N)nc(C)c2c1-c1ccc(C#N)c2c1OCO2 [DNDI-6174] :: 4.72

* * *

# measured on: complex III of L. donovani (Leishmania donovani)
# Sequence (A5HU08 1-290): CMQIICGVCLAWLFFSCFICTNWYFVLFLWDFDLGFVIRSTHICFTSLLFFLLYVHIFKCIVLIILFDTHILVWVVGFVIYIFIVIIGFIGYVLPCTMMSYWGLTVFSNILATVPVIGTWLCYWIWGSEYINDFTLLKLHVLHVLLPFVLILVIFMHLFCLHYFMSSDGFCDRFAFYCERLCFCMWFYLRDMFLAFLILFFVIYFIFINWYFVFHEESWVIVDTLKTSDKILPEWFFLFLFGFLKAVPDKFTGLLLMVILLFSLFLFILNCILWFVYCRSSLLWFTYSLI
# Sequence (A0A3S7WPP0 1-258 partner): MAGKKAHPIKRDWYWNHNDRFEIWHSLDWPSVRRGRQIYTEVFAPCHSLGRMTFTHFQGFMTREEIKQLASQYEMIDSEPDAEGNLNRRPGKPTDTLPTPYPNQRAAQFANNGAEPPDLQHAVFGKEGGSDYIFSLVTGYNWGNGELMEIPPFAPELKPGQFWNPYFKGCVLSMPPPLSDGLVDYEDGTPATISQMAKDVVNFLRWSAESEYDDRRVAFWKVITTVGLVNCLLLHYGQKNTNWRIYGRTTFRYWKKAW
# procedure details: Complex III assay in mitochondria-enriched cell lysates
# setup conditions: lysates from axenic amastigote stage
experimental readout: IC50 (nM)

Cc1[nH]c2nc(N)nc(C)c2c1-c1ccc(C#N)c2c1OCO2 [DNDI-6174] :: 2

* * *

# procedure details: Compartmental PK modelling and repeat-dose simulation
# Parameters: species or system mice
# setup conditions: mouse, plasma, po; Mice, 12.7 mg/kg, fitted
experimental readout: AUC(0-inf) (ng·h/mL)

Cc1[nH]c2nc(N)nc(C)c2c1-c1ccc(C#N)c2c1OCO2 [DNDI-6174] :: 41700

* * *

# Tested on: remaining CYP isoforms other than CYP1A2 and CYP3A4/5 (CYP2B6, CYP2C8, CYP2C9, CYP2C19, CYP2D6)
# procedure details: Cytochrome P450 inhibition, human liver microsomes
# Type: in vitro ADME
# setup conditions: remaining isoforms (other than CYP1A2 and CYP3A4/5)
pIC50: −log10 of the molar value.
experimental readout: pIC50

Cc1[nH]c2nc(N)nc(C)c2c1-c1ccc(C#N)c2c1OCO2 [DNDI-6174] :: < 4.82

* * *

# procedure details: Plasma protein binding (rapid equilibrium dialysis)
# Type: in vitro ADME
# setup conditions: BALB/c, mouse, diluted to 10% in PBS, pH 7.4
experimental readout: fraction unbound at 24 h

Cc1[nH]c2nc(N)nc(C)c2c1-c1ccc(C#N)c2c1OCO2 [DNDI-6174] :: 0.12

* * *

# procedure details: In vitro metabolism, liver microsomes
# Assay type: in vitro ADME, mouse
# setup conditions: mouse, liver microsomes, pH 7.4, Mouse; 2 independent experiments; read-out: In vitro Microsome CLint
experimental readout: microsomal CLint at 0.5 µM (µL/min/mg)

Cc1[nH]c2nc(N)nc(C)c2c1-c1ccc(C#N)c2c1OCO2 [DNDI-6174] :: 17

* * *

# procedure details: Caco-2 permeability
# Format: in vitro ADME
# setup conditions: human
experimental readout: Papp A→B (×10⁻⁶ cm/s)

Cc1[nH]c2nc(N)nc(C)c2c1-c1ccc(C#N)c2c1OCO2 :: 71

* * *

# procedure details: Plasma protein binding (rapid equilibrium dialysis)
# Format: in vitro ADME
# setup conditions: human, diluted to 10% in PBS, pH 7.4
experimental readout: fraction unbound at 24 h

Cc1[nH]c2nc(N)nc(C)c2c1-c1ccc(C#N)c2c1OCO2 :: 0.059

* * *

# measured on: CYP2C9 (Homo sapiens, UniProt P11712)
# Construct: incubation of isoform-specific substrates with human liver microsomes; from tissue; host or cells: human liver microsomes
# Sequence (P11712 whole entry, canonical isoform): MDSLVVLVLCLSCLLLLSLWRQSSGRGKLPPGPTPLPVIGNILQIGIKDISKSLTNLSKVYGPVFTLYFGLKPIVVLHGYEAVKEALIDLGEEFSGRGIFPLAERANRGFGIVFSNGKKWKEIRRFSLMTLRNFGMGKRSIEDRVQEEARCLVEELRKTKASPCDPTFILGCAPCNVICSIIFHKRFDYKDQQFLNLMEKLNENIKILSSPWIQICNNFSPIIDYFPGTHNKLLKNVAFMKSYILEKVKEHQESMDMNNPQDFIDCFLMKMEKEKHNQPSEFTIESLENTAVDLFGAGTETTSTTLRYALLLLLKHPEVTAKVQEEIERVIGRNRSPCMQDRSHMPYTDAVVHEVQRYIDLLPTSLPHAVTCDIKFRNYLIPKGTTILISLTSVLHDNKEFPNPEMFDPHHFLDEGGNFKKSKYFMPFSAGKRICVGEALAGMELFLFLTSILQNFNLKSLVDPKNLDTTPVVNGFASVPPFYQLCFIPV
# procedure details: Cytochrome P450 inhibition, human liver microsomes
# Format: in vitro ADME
# setup conditions: without NADPH preincubation; read-out: Time-dependent inhibition IC50
pIC50: −log10 of the molar value.
experimental readout: pIC50

Cc1[nH]c2nc(N)nc(C)c2c1-c1ccc(C#N)c2c1OCO2 :: 4.86

* * *

# procedure details: In vivo pharmacokinetics
# Set-up: species or system female BALB/c mice
# setup conditions: female, BALB/c, mouse, plasma; mice, oral 12.5 mg/kg bid, 5 days; read-out: AUC96-120 (last dose)
experimental readout: AUC (µg·h/mL)

Cc1[nH]c2nc(N)nc(C)c2c1-c1ccc(C#N)c2c1OCO2 :: 93.3

* * *

# procedure details: In vivo pharmacokinetics
# Parameters: species or system male beagle dogs
# setup conditions: male, beagle, dog, plasma, po, 90 mg/kg, dogs, single oral 90 mg/kg; two individual dogs; read-out: AUC0-∞
experimental readout: AUC(0-inf) (µg·h/mL)

Cc1[nH]c2nc(N)nc(C)c2c1-c1ccc(C#N)c2c1OCO2 :: 613

* * *

# procedure details: Compartmental PK modelling and repeat-dose simulation
# Design: species or system mice
# setup conditions: mouse, plasma, po; Mice, 7.1 mg/kg, fitted
experimental readout: CL/F

Cc1[nH]c2nc(N)nc(C)c2c1-c1ccc(C#N)c2c1OCO2 :: 7.98 mL/min/kg

* * *

# measured on: PDE4D2 (Homo sapiens, UniProt Q08499)
# Sequence (Q08499 303-809 limits assumed): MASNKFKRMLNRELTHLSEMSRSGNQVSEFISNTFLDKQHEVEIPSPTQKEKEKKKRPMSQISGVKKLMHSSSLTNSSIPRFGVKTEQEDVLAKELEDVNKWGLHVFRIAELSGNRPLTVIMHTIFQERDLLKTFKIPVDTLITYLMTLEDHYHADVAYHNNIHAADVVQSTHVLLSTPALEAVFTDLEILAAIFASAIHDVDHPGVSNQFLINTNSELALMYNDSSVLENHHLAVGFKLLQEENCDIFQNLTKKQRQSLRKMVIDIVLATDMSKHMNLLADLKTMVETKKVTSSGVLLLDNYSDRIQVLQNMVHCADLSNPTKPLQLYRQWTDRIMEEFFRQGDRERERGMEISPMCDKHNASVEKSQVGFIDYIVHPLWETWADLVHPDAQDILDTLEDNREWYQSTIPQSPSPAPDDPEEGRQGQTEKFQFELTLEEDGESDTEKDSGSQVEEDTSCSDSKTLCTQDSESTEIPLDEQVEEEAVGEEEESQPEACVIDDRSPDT
experimental readout: IC50

Cc1[nH]c2nc(N)nc(C)c2c1-c1ccc(C#N)c2c1OCO2 :: 6.67 µM

* * *

# procedure details: In vivo pharmacokinetics
# Parameters: species or system female golden Syrian hamsters
# setup conditions: female, golden Syrian, plasma; Hamster, oral 12.5 mg/kg; read-out: Apparent t1/2 (converted)
experimental readout: half-life (h)

Cc1[nH]c2nc(N)nc(C)c2c1-c1ccc(C#N)c2c1OCO2 :: 2.6

* * *

# procedure details: In vivo pharmacokinetics
# Set-up: species or system female BALB/c mice
# setup conditions: female, BALB/c, mouse, plasma; mice, oral 12.5 mg/kg bid, 5 days; read-out: AUC0-24 (first dose)
experimental readout: AUC(0-t) (ng·h/mL)

Cc1[nH]c2nc(N)nc(C)c2c1-c1ccc(C#N)c2c1OCO2 [DNDI-6174] :: 94500

* * *

# measured on: OATP1B1 (Homo sapiens, UniProt Q9Y6L6)
# Sequence (Q9Y6L6 1-691): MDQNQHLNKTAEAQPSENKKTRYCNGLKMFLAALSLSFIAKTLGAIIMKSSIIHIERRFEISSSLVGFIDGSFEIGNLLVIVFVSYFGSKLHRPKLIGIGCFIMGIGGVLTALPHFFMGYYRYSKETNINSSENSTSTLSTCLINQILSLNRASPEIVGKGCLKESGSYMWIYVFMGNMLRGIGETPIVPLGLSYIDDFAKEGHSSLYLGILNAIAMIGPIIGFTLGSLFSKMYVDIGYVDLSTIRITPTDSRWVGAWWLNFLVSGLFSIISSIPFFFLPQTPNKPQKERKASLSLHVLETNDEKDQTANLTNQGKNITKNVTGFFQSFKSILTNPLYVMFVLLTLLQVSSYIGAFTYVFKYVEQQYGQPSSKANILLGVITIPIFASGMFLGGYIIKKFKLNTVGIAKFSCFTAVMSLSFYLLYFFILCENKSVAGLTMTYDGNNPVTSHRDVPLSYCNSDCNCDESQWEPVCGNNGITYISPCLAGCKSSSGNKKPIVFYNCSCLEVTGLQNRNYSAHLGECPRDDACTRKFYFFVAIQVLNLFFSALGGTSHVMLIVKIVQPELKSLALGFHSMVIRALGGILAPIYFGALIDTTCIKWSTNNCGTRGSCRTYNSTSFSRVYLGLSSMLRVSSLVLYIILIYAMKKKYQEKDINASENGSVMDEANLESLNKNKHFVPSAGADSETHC
pIC50: −log10 of the molar value.
experimental readout: pIC50

Cc1[nH]c2nc(N)nc(C)c2c1-c1ccc(C#N)c2c1OCO2 [DNDI-6174] :: 4.66

* * *

# procedure details: In vitro cytotoxicity assay
# Assay type: cell-based
# setup conditions: human, MRC-5 human fetal lung fibroblasts
experimental readout: CC50

Cc1[nH]c2nc(N)nc(C)c2c1-c1ccc(C#N)c2c1OCO2 [DNDI-6174] :: > 64 µM

* * *

# procedure details: In vivo pharmacokinetics
# Design: species or system female BALB/c mice
# setup conditions: female, BALB/c, mouse, plasma; mice, oral 7.1 mg/kg bid, 5 days; read-out: Cmax (first dose)
experimental readout: Cmax (ng/mL)

Cc1[nH]c2nc(N)nc(C)c2c1-c1ccc(C#N)c2c1OCO2 :: 1930

* * *

# procedure details: pKa and Log D7.4 determination
# Format: physicochemical
# setup conditions: octanol/pH 7.4 buffer, pH 7.4, octanol-pH 7.4 buffer; read-out: Log D7.4 (measured)
experimental readout: logD

Cc1[nH]c2nc(N)nc(C)c2c1-c1ccc(C#N)c2c1OCO2 [DNDI-6174] :: 2.6

* * *

# procedure details: In vivo pharmacokinetics
# Design: species or system female golden Syrian hamsters
# setup conditions: female, golden Syrian, hamster, plasma; hamsters, oral 25 mg/kg qd, 5 days; read-out: AUC96-120 (last dose)
experimental readout: AUC

Cc1[nH]c2nc(N)nc(C)c2c1-c1ccc(C#N)c2c1OCO2 [DNDI-6174] :: 77400 ng·h/mL

* * *

# procedure details: In vivo pharmacokinetics
# Parameters: species or system female BALB/c mice
# setup conditions: female, BALB/c, plasma; Mouse, oral 25 mg/kg; read-out: Apparent t1/2 (converted)
experimental readout: half-life (h)

Cc1[nH]c2nc(N)nc(C)c2c1-c1ccc(C#N)c2c1OCO2 :: 3.7

* * *

# procedure details: In vivo pharmacokinetics
# Set-up: species or system female golden Syrian hamsters
# setup conditions: female, golden Syrian, plasma; Hamster, oral 12.5 mg/kg; read-out: Plasma AUC0-∞
experimental readout: AUC(0-inf)

Cc1[nH]c2nc(N)nc(C)c2c1-c1ccc(C#N)c2c1OCO2 :: 21.2 µg·h/mL
